Where do the numbers come from? From BindingDB's records for patent US20240083888.

- testedSystem: Dipeptidyl peptidase 1 (Homo sapiens)
- Sequence (P53634 25-134 limits assumed): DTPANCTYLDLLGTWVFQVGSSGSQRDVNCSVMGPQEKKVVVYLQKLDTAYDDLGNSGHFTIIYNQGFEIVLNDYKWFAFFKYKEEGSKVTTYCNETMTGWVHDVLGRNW
- Sequence (P53634 231-394 limits assumed): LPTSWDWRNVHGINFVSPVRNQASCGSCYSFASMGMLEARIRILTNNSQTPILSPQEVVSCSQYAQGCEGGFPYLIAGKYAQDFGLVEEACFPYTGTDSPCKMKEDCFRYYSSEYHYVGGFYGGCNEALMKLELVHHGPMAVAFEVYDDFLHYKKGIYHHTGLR
- Sequence (P53634 395-463 limits assumed): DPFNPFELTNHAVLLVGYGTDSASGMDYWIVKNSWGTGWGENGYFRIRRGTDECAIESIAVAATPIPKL
- experimentNotes: In Vitro Inhibitory Assay
valueType: pIC50
pIC50 field: float, defined as -log10 of concentration (mol/L).

Prompt line: Tell me reported pIC50 for N#C[C@H](Cc1ccc2c(c1)CC(=O)N(c1ccc(F)cc1)C2)NC(=O)C1(N)CCCCC1 , tested with Dipeptidyl peptidase 1 (Homo sapiens).
Response line: 7.77
